Test system: PANC-08-13 (Pancreatic Carcinoma)
Assay: combination Emax (second highest fraction inhibited in the dose matrix, 72 h); higher = more inhibition; extreme values may be limits of the assay
Measure: combination Emax

{"columns": ["Compound", "Tested on", "combination Emax"],
 "data": [
  ["Cc1cc2ncnn2cc1Nc1ncc2c(n1)n(C1CCOCC1)c(=O)n2C [AZD7648] + CCN(CCO)CCCOc1ccc2c(Nc3cc(CC(=O)Nc4cccc(F)c4)[nH]n3)ncnc2c1 [AZD2811] (first compound max 10 µM, 7x7, partner max 1 µM)", "PANC-08-13 (Pancreatic Carcinoma)", 0.254],
  ["Cn1cnc2c(F)c(Nc3ccc(Br)cc3Cl)c(C(=O)NOCCO)cc21 [Selumetinib] + CC(C)n1c(=O)n(C)c2cnc3cc(F)c(-c4ccc(OCCCN5CCCCC5)nc4)cc3c21 [AZD1390] (first compound max 10 µM, 7x7, partner max 0.3 µM)", "PANC-08-13 (Pancreatic Carcinoma)", 0.111],
  ["Cc1c2c(nn1C)CSCc1cc(n(C)n1)CSc1cc(c3ccccc3c1)OCCCc1c(C(=O)O)n(C)c3c-2c(Cl)ccc13 [AZD5991] + C1CN(CCC1(C(=O)N[C@@H](CCO)C2=CC=C(C=C2)Cl)N)C3=NC=NC4=C3C=CN4 [Capivasertib] (first compound max 1 µM, 7x7, partner max 3 µM)", "PANC-08-13 (Pancreatic Carcinoma)", 0.15]
]}

Attention now shifts to the item below.
Quote combination Emax reported for Cc1c2c(nn1C)CSCc1cc(n(C)n1)CSc1cc(c3ccccc3c1)OCCCc1c(C(=O)O)n(C)c3c-2c(Cl)ccc13 [AZD5991] + C=CCn1c(=O)c2cnc(Nc3ccc(N4CCN(C)CC4)cc3)nc2n1-c1cccc(C(C)(C)O)n1 [AZD1775] (first compound max 1 µM, partner max 1 µM) please.
0.379

====

Test system: LN-18 (Glioblastoma)
Assay: Bliss excess, mean over the matrix (fraction); higher = more synergy
Some molecules, each annotated with its measured Bliss excess.
Form field (numeric): enter value without unit.

# example entries with known answers
{"columns": ["Molecule", "Assay result"],
 "data": [
  ["COc1nnc2ccc(N3CCC(c4ccc(OCCN5CCN(C)C(=O)[C@H]5C)cc4)CC3)nn12 [AZD5153] + C=CCn1c(=O)c2cnc(Nc3ccc(N4CCN(C)CC4)cc3)nc2n1-c1cccc(C(C)(C)O)n1 [AZD1775] (first compound max 1 µM, partner max 1 µM)", -0.0502],
  ["COc1cc2c(cc1OCCCCCOc1cc3c(cc1OC)C(=O)N1C=C(C)C[C@H]1C=N3)N=C[C@@H]1CC(C)=CN1C2=O [SG3199] + O=C(c1cc(Cc2n[nH]c(=O)c3ccccc23)ccc1F)N1CCN(C(=O)C2CC2)CC1 [Olaparib] (first compound max 0.001 µM, 7x7, partner max 10 µM)", -0.0119],
  ["Cc1c2c(nn1C)CSCc1cc(n(C)n1)CSc1cc(c3ccccc3c1)OCCCc1c(C(=O)O)n(C)c3c-2c(Cl)ccc13 [AZD5991] + C[C@@H](Nc1cc(F)cc(F)c1)c1cc(C(=O)N(C)C)cc2c(=O)cc(N3CCOCC3)oc12 [AZD8186] (first compound max 1 µM, 7x7, partner max 3 µM)", 0.0079]
]}

Now consider the entry below.
Respond only with Bliss excess recorded for CCN(CCO)CCCOc1ccc2c(Nc3cc(CC(=O)Nc4cccc(F)c4)[nH]n3)ncnc2c1 [AZD2811] + O=C(c1cc(Cc2n[nH]c(=O)c3ccccc23)ccc1F)N1CCN(C(=O)C2CC2)CC1 [Olaparib] (first compound max 1 µM, 7x7, partner max 10 µM)
-0.0299

====

compounds and their reported Bliss excess
System: U251 (Low Grade Glioma)
Assay: Bliss excess, mean over the matrix (fraction); higher = more synergy
Reply with just the number.

Look over these answered cases.
{"columns": ["Compound", "Assay result"],
 "data": [
  ["CS(=O)(=O)CCNCc1ccc(-c2ccc3ncnc(Nc4ccc(OCc5cccc(F)c5)c(Cl)c4)c3c2)o1 [Lapatinib] + C[C@@H](Oc1cc(-c2cnn(C3CCNCC3)c2)cnc1N)c1c(Cl)ccc(F)c1Cl [Crizotinib] (first compound max 10 µM, 7x7, partner max 10 µM)", -0.0586],
  ["CC(=O)c1c(C)c2cnc(Nc3ccc(N4CCNCC4)cn3)nc2n(C2CCCC2)c1=O [Palbociclib] + CC1(C)CCC(CN2CCN(c3ccc(C(=O)NS(=O)(=O)c4ccc(NCC5CCOCC5)c([N+](=O)[O-])c4)c(Oc4cnc5[nH]ccc5c4)c3)CC2)=C(c2ccc(Cl)cc2)C1 [Venetoclax] (first compound max 10 µM, 7x7, partner max 1 µM)", -0.0348]
]}

Then there is this compound:
Given C=CCn1c(=O)c2cnc(Nc3ccc(N4CCN(C)CC4)cc3)nc2n1-c1cccc(C(C)(C)O)n1 [AZD1775] + C[C@@H]1COCCN1C2=NC(=NC(=C2)C3(CC3)[S@](=N)(=O)C)C4=C5C=CNC5=NC=C4 [AZD6738] (first compound max 1 µM, partner max 10 µM) , report its Bliss excess on U251 (Low Grade Glioma).
0.0604

====

Recorded Bliss excess values for a group of compounds are listed next.
Test system: SU-DHL-8 (B-Cell Non-Hodgkin's Lymphoma)
Test: Bliss excess, mean over the matrix (fraction); higher = more synergy
I'd appreciate a reply containing only the number, no unit.

# example entries with known answers
{"columns": ["Compound", "Assay result"],
 "data": [
  ["COc1cc2c(cc1OCCCCCOc1cc3c(cc1OC)C(=O)N1C=C(C)C[C@H]1C=N3)N=C[C@@H]1CC(C)=CN1C2=O [SG3199] + O=C(c1cc(Cc2n[nH]c(=O)c3ccccc23)ccc1F)N1CCN(C(=O)C2CC2)CC1 [Olaparib] (first compound max 0.001 µM, 7x7, partner max 10 µM)", 0.0547],
  ["C=CCn1c(=O)c2cnc(Nc3ccc(N4CCN(C)CC4)cc3)nc2n1-c1cccc(C(C)(C)O)n1 [AZD1775] + C[C@@H]1COCCN1C2=NC(=NC(=C2)C3(CC3)[S@](=N)(=O)C)C4=C5C=CNC5=NC=C4 [AZD6738] (first compound max 1 µM, partner max 10 µM)", -0.0202],
  ["Cc1c2c(nn1C)CSCc1cc(n(C)n1)CSc1cc(c3ccccc3c1)OCCCc1c(C(=O)O)n(C)c3c-2c(Cl)ccc13 [AZD5991] + C=CCn1c(=O)c2cnc(Nc3ccc(N4CCN(C)CC4)cc3)nc2n1-c1cccc(C(C)(C)O)n1 [AZD1775] (first compound max 1 µM, partner max 1 µM)", -0.01],
  ["NC1(C(=O)N[C@@H](CCO)c2ccc(Cl)cc2)CCN(c2ncnc3[nH]ccc23)CC1 [Capivasertib] + C[C@@H]1COCCN1C2=NC(=NC(=C2)C3(CC3)[S@](=N)(=O)C)C4=C5C=CNC5=NC=C4 [AZD6738] (first compound max 10 µM, 7x7, partner max 10 µM)", -0.0045],
  ["CC1(C)CCC(CN2CCN(c3ccc(C(=O)NS(=O)(=O)c4ccc(NCC5CCOCC5)c([N+](=O)[O-])c4)c(Oc4cnc5[nH]ccc5c4)c3)CC2)=C(c2ccc(Cl)cc2)C1 [Venetoclax] + C[C@@H](Nc1cc(F)cc(F)c1)c1cc(C(=O)N(C)C)cc2c(=O)cc(N3CCOCC3)oc12 [AZD8186] (first compound max 1 µM, 7x7, partner max 3 µM)", -0.041],
  ["CC(=O)c1c(C)c2cnc(Nc3ccc(N4CCNCC4)cn3)nc2n(C2CCCC2)c1=O [Palbociclib] + Cn1cnc2c(F)c(Nc3ccc(Br)cc3Cl)c(C(=O)NOCCO)cc21 [Selumetinib] (first compound max 10 µM, 7x7, partner max 10 µM)", 0.0147]
]}

Next compound, please.
Report Bliss excess from SU-DHL-8 (B-Cell Non-Hodgkin's Lymphoma) testing of COc1nnc2ccc(N3CCC(c4ccc(OCCN5CCN(C)C(=O)[C@H]5C)cc4)CC3)nn12 [AZD5153] + C[C@@H]1COCCN1C2=NC(=NC(=C2)C3(CC3)[S@](=N)(=O)C)C4=C5C=CNC5=NC=C4 [AZD6738] (first compound max 1 µM, 7x7, partner max 10 µM)
0.0042

====

Tested on: GR-ST (B-Lymphoblastic Leukemia)
Assay: Bliss excess, mean over the matrix (fraction); higher = more synergy
Measure: Bliss excess
Response field accepts a number only; no unit should be typed.

Take a look at these entries with their results.
{"columns": ["Molecule", "Measure", "Assay result"],
 "data": [
  ["Cn1cnc2c(F)c(Nc3ccc(Br)cc3Cl)c(C(=O)NOCCO)cc21 [Selumetinib] + CC(C)n1c(=O)n(C)c2cnc3cc(F)c(-c4ccc(OCCCN5CCCCC5)nc4)cc3c21 [AZD1390] (first compound max 10 µM, 7x7, partner max 0.3 µM)", "Bliss excess", -0.0084],
  ["CC1(C)CCC(CN2CCN(c3ccc(C(=O)NS(=O)(=O)c4ccc(NCC5CCOCC5)c([N+](=O)[O-])c4)c(Oc4cnc5[nH]ccc5c4)c3)CC2)=C(c2ccc(Cl)cc2)C1 [Venetoclax] + CCN(CCO)CCCOc1ccc2c(Nc3cc(CC(=O)Nc4cccc(F)c4)[nH]n3)ncnc2c1 [AZD2811] (first compound max 1 µM, 7x7, partner max 1 µM)", "Bliss excess", -0.0505]
]}

Please list Bliss excess recorded for the molecule C[C@@H]1COCCN1c1cc(C2([S@](C)(=N)=O)CC2)nc(-c2ccnc3[nH]ccc23)n1 [AZD6738] + O=C(c1cc(Cc2n[nH]c(=O)c3ccccc23)ccc1F)N1CCN(C(=O)C2CC2)CC1 [Olaparib] (first compound max 10 µM, 7x7, partner max 10 µM)
-0.0471
